Assay: Solubility in pH 7.5 phosphate buffer by nephelometry
Type: physicochemical
Value type: solubility kinetic

[ask] Requested read-out: solubility kinetic. Entry: `CC(C)(O/N=C(\C(=O)N[C@H]1CN2CC(C(=O)NCCN3C(=O)c4cc(O)c(O)cc4C3=O)=C(C(=O)O)N2C1=O)c1csc(N)n1)C(=O)O`
[reply] > 100 µM

---

Assay: Stability in pH 7.5 phosphate buffer assessed as compound hydrolysis after 2 weeks at room temperature
Assay type: physicochemical
Details: read-out: Drug degradation
Value type: degraded at 336 h (%)
Could you give me the number in %? Just the number is fine.

[ask] Please look up its degraded at 336 h: `CC(C)(O/N=C(\C(=O)N[C@H]1CN2CC(C(=O)NCCN3C(=O)c4cc(O)c(O)cc4C3=O)=C(C(=O)O)N2C1=O)c1csc(N)n1)C(=O)O`
[reply] 4
